Test: Cmax in ovariectomized nu/nu mouse at 10 mg/kg, ip measured upto 24 hrs by UHPLC-MS analysis
Assay type: ADME, organism-based
Set-up: dose 10 mg/kg, route intraperitoneal
Details: female, in vivo
assayReadout: Cmax (ng/mL)
Give bare numbers, in ng/mL.

[ask] For the molecule Oc1cccc(-c2nc(N3CCOCC3)c3oc4ncccc4c3n2)c1 , what Cmax is on record?
[reply] 1.4

* * *

Experiment: AUC in ovariectomized nu/nu mouse at 10 mg/kg, ip measured upto 24 hrs by UHPLC-MS analysis
Type: ADME, organism-based
Design: dose 10 mg/kg, time < 24 hr, route intraperitoneal
Conditions: female, in vivo
assayReadout: AUC at 24 h (ng·h/mL)
Answers are plain numbers, in ng·h/mL.

[ask] For the compound Oc1cccc(-c2nc(N3CCOCC3)c3oc4ncccc4c3n2)c1 , what AUC at 24 h is on record?
[reply] 9.7

* * *

Test: Half life in ovariectomized nu/nu mouse at 10 mg/kg, ip measured upto 24 hrs by UHPLC-MS analysis
Type: ADME, organism-based
Conditions: female, in vivo
assayReadout: half-life

[ask] For the compound Oc1cccc(-c2nc(N3CCOCC3)c3oc4ncccc4c3n2)c1 [PI-103] , what half-life is on record?
[reply] 2 h

* * *

Assay: Drug concentration in ovariectomized nu/nu mouse plasma at 10 mg/kg, ip measured after 8 hrs by UHPLC-MS analysis
Assay type: ADME, organism-based
Settings: female
assayReadout: concentration at 8 h (ng/mL)
Answers are plain numbers, in ng/mL.

[ask] For the molecule Oc1cccc(-c2nc(N3CCOCC3)c3oc4ncccc4c3n2)c1 [PI-103] , what concentration at 8 h is on record?
[reply] 0.3

* * *

Assay: Tmax in ovariectomized nu/nu mouse at 10 mg/kg, ip measured upto 24 hrs by UHPLC-MS analysis
Format: ADME, organism-based
Conditions: female, in vivo
assayReadout: Tmax (h)
Answers are plain numbers, in h.

[ask] For the compound Oc1cccc(-c2nc(N3CCOCC3)c3oc4ncccc4c3n2)c1 , what Tmax is on record?
[reply] 1

* * *

Test: Drug concentration in ovariectomized nu/nu mouse plasma at 10 mg/kg, ip measured after 3 hrs by UHPLC-MS analysis
Assay type: ADME, organism-based
Conditions: female
assayReadout: concentration at 3 h (ng/mL)
Answers are plain numbers, in ng/mL.

[ask] For the molecule Oc1cccc(-c2nc(N3CCOCC3)c3oc4ncccc4c3n2)c1 [PI-103] , what concentration at 3 h is on record?
[reply] 1

Where do the numbers come from? From ChEMBL document CHEMBL4622914.
